B1: VH:VL chains; a variant is named by its letters at X, in order (parent)
chain 1: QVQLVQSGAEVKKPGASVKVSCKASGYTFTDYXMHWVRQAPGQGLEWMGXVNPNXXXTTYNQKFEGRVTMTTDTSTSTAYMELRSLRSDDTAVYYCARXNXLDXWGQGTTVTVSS
chain 2: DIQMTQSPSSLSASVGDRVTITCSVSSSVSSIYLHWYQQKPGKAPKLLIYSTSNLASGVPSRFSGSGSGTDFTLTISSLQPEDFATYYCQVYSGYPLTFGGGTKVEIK

variants of: B1; experiment: yeast display scFab, FACS + sequencing
Parameter: non-specific binding call

These solved cases illustrate the format of a correct answer.
Mutation id | non-specific binding call
DARGGDAA | no binding
YRRGDAWY | binds
YTGTGSGA | no binding
YRARGSWD | binds
SRGRGAWA | binds
YRAESSGV | binds
FKGEGSLV | no binding
VRERSSVD | binds
YRKGGSVS | binds
VEAGTAVA | no binding

Asked: Fill in non-specific binding call for record `YRGRSAGS`
Given back: binds

Asked: Fill in non-specific binding call for record `VGTKGAGF`
Given back: binds

Asked: Fill in non-specific binding call for record `SKERGDVD`
Given back: no binding

Asked: Fill in non-specific binding call for record `YRARSAWV`
Given back: binds

Asked: Fill in non-specific binding call for record `FEEGTDWY`
Given back: no binding

Asked: Fill in non-specific binding call for record `FAKEGFWD`
Given back: binds

Asked: Fill in non-specific binding call for record `DRGRGSAD`
Given back: binds

Asked: Fill in non-specific binding call for record `YKTRGSLD`
Given back: binds

Asked: Fill in non-specific binding call for record `FTEEGDGA`
Given back: no binding

Asked: Fill in non-specific binding call for record `YKGRGYSY`
Given back: binds

Asked: Fill in non-specific binding call for record `YRKGAASD`
Given back: binds

Asked: Fill in non-specific binding call for record `YRGGSAGF`
Given back: binds

Asked: Fill in non-specific binding call for record `FRGAGSVA`
Given back: binds

Asked: Fill in non-specific binding call for record `YRARSALD`
Given back: binds

Asked: Fill in non-specific binding call for record `FRAKGSAD`
Given back: binds
